Below, each of the compounds is paired with its reported T/C value.
Tested on: nude mice, HT29 intrarenal xenograft, tumor weight T/C
Assay: NCI In Vivo Anticancer Drug Screen. Data for tumor model HT29;CX-1 Human Adenocarcinoma (MER+) (intrarenal inoculation) in NU/NU Swiss (nude) mice
Conditions: endpoint: mean tumor weight change; dose: 150.0 mg/kg/injection; schedule: Q04DX004 (sc); vehicle: saline with Tween-80; higher = larger tumour
Results filed as inconclusive are left out.

>  <smiles record>
C1=CCOCOC1

>  <T/C>
68 % of control

$$$$
>  <smiles record>
Brc1ccc(C[N+]23CN4CN(CN(C4)C2)C3)cc1

>  <T/C>
69 % of control

$$$$
>  <smiles record>
O=C1CN(Cc2ccc3c(c2)OCO3)NO1

>  <T/C>
92 % of control

$$$$
>  <smiles record>
NC(=S)N/N=C/c1ccc(OC(=O)COc2ccccc2)cn1

>  <T/C>
102 % of control

$$$$
>  <smiles record>
CC(=O)Nc1ccc(O)c(O)c1

>  <T/C>
257 % of control

$$$$
>  <smiles record>
CN=C(N)N/N=C(\C)c1ccc2c(c1)Cc1ccccc1-2

>  <T/C>
116 % of control

$$$$
>  <smiles record>
C=C/C(C)=C/[C@H](C)C(=O)C[C@H](O)CC1CC(=O)NC(=O)C1

>  <T/C>
91 % of control

$$$$
